System: SW620 cells
Test: MTS short-term cytotoxicity assay (72 h), SW620
Assay type: cell-based
Conditions: Homo sapiens, SW-620, 72 h, read-out: SW620 IC50
observable: IC50

Q: Form: Entry = C[n+]1ccc(-c2c3nc(c(-c4cc[n+](C)cc4)c4ccc([nH]4)c(-c4cc[n+](C)cc4)c4ccc([nH]4)c(-c4cc[n+](C)cc4)c4nc2C=C4)C=C3)cc1 [TMPyP4, reference compound] | System = SW620 cells | IC50 = ____
Result: > 20 µM

* * *

Test system: T-Loop duplex DNA
Assay: FRET melting assay, duplex DNA
Format: binding
Settings: 1 μM compound; standard deviation < 0.2°C
observable: ΔTm (°C) T-Loop 1 μM

>  <compound>
CCN(CC)CCOC(=O)c1ccc2c(c1)c1nc3ccccc3c(OCCN(CC)CC)c1n2CCN(CC)CC [1a]

>  <ΔTm (°C) T-Loop 1 μM>
<2 °C

$$$$
>  <compound>
O=C(OCCN1CCCC1)c1ccc2c(c1)c1c(c(=O)c3ccccc3n1CCN1CCCC1)n2CCN1CCCC1 [2b]

>  <ΔTm (°C) T-Loop 1 μM>
3 °C

$$$$
>  <compound>
O=C(OCCCN1CCCCC1)c1ccc2c(c1)c1nc3ccccc3c(OCCCN3CCCCC3)c1n2CCCN1CCCCC1 [1d]

>  <ΔTm (°C) T-Loop 1 μM>
<2 °C

$$$$
>  <compound>
O=C(OCCN1CCCC1)c1ccc2c(c1)c1nc3ccccc3c(OCCN3CCCC3)c1n2CCN1CCCC1 [1b]

>  <ΔTm (°C) T-Loop 1 μM>
<2 °C

$$$$
>  <compound>
C[n+]1ccc(-c2c3nc(c(-c4cc[n+](C)cc4)c4ccc([nH]4)c(-c4cc[n+](C)cc4)c4ccc([nH]4)c(-c4cc[n+](C)cc4)c4nc2C=C4)C=C3)cc1 [TMPyP4, reference compound]

>  <ΔTm (°C) T-Loop 1 μM>
16 °C

$$$$
>  <compound>
CCN(CC)CCOC(=O)c1ccc2c(c1)c1c(c(=O)c3ccccc3n1CCN(CC)CC)n2CCN(CC)CC [2a]

>  <ΔTm (°C) T-Loop 1 μM>
<2 °C

$$$$
>  <compound>
O=C(OCCN1CCOCC1)c1ccc2c(c1)c1nc3ccccc3c(OCCN3CCOCC3)c1n2CCN1CCOCC1 [1c]

>  <ΔTm (°C) T-Loop 1 μM>
<2 °C

$$$$

Okay, now this compound:
Q: Form: Entry = O=C(OCCCN1CCCCC1)c1ccc2c(c1)c1c(c(=O)c3ccccc3n1CCCN1CCCCC1)n2CCCN1CCCCC1 [2d] | System = T-Loop duplex DNA | ΔTm (°C) T-Loop 1 μM = ____
Result: 4 °C

* * *

Tested on: HEK293T cells
Experiment: MTS short-term cytotoxicity assay (72 h), HEK293T
Type: cell-based, human
Conditions: Homo sapiens, HEK-293T, read-out: HEK293T IC50
observable: pIC50
In plain terms, pIC50 is the concentration in mol/L turned into minus its base-10 logarithm.

Q: Form: Entry = C[n+]1ccc(-c2c3nc(c(-c4cc[n+](C)cc4)c4ccc([nH]4)c(-c4cc[n+](C)cc4)c4ccc([nH]4)c(-c4cc[n+](C)cc4)c4nc2C=C4)C=C3)cc1 [TMPyP4, reference compound] | System = HEK293T cells | pIC50 = ____
Result: 5.53
